The reported measurements were obtained from paper PMC4806436.

# Assay Target: TbPARP (Trypanosoma brucei brucei, UniProt Q0PW89)
# Sequence (Q0PW89 entry or part of it): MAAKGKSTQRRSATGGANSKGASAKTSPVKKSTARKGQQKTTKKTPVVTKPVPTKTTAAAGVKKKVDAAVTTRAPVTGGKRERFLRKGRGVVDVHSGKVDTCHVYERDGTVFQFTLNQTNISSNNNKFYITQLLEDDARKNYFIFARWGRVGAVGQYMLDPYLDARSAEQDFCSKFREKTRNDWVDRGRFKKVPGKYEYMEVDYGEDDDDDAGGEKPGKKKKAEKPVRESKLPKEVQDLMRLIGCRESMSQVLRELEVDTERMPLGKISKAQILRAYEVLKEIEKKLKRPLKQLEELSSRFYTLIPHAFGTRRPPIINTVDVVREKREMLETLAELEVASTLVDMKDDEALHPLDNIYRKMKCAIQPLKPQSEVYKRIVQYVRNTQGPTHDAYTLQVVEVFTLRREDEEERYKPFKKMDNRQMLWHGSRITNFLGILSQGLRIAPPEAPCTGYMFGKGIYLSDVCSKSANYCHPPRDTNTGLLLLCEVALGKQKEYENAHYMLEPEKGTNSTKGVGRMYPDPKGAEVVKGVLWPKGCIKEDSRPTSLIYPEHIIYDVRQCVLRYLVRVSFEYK
# Test Protocol: biochemical
# Test Parameters: TbPARP IC50, 5 nM TbPARP, 500 nM NAD+, 11 min at 25 °C; mean of three dose-response curves
Assay Endpoint: IC50 (nM)

> print(dat)
                input.smiles  unit.abbreviation  numeric.value
1  Cc1nc(=O)c2cccc(O)c2[nH]1                 nM            680

---

# Assay Target: TbPARP (Trypanosoma brucei brucei, UniProt Q0PW89)
# Test Protocol: biochemical
# Test Parameters: 5 nM TbPARP, 500 nM NAD+, 11 min at 25 °C; mean of three dose-response curves; read-out: TbPARP IC50
pIC50: −log10 of the molar value.
# cutoff 6 applies to pIC50; >= gives met, < gives not met

> print(dat)
                                   molecule  class.name
1  CNCc1ccc(-c2[nH]c3cc(F)cc4c3c2CCNC4=O)cc1         met
2   CN(C)CC(=O)Nc1ccc2[nH]c(=O)c3ccccc3c2c1         met
3  NC(=O)c1cccc(N)c1 [Compound 3-AB, 3-aminobenzamide]     not met
